Record form. Attribute: Ki. Fill in for each entry.
molecular target: HLA-Cw0602 (human)
Hi! Could you send only the number? It should be in nM, unit omitted.

// VAYYRGLDV (modifications not checked) : Ki value = 231

// GRKPARLIV (modifications not checked) : Ki value = 2040

// GRRGIYRFV (modifications not checked) : Ki value = 576

// RKPARLIVF (modifications not checked) : Ki value = 8280
